Target: C4b (UniProt P0C0L4)
Sequence (P0C0L4 757-1446 limits assumed, chain 1 of 3): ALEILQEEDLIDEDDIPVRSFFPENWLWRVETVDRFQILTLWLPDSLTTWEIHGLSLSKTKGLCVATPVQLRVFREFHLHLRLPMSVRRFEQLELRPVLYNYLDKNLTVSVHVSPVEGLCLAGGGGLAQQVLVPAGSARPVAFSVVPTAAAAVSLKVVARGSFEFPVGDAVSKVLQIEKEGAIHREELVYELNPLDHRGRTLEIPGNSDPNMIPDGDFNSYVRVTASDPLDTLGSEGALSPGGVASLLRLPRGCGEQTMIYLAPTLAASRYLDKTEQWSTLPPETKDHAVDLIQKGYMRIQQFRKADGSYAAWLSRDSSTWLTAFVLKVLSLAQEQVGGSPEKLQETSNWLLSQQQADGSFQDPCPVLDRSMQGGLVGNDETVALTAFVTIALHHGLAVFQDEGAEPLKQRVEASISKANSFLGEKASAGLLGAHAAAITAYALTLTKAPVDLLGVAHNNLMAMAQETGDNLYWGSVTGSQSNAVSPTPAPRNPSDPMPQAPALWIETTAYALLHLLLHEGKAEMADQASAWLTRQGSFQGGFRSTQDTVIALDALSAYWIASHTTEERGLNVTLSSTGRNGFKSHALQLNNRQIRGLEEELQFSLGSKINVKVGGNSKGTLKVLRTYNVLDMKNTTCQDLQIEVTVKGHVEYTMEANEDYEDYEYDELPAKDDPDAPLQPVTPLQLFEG
Sequence (P0C0L4 20-675 limits assumed, chain 2 of 3): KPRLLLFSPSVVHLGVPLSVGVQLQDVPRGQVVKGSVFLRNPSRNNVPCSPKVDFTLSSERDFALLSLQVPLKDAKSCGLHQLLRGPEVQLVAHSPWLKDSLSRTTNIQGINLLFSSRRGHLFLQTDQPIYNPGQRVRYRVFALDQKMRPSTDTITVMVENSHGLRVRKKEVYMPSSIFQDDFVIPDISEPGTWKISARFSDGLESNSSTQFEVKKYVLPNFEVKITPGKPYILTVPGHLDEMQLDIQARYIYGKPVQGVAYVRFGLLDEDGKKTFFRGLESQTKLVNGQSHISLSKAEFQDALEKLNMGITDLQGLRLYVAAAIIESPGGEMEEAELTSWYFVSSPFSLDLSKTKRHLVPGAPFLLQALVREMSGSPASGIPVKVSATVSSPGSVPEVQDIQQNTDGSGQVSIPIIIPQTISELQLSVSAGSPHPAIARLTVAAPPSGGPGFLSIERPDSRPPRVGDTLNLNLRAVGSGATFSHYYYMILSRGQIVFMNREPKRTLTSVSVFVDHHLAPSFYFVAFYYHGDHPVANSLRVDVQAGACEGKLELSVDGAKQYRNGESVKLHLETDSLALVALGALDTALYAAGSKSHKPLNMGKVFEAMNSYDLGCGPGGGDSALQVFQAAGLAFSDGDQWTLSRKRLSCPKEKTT
Sequence (P0C0L4 1454-1744 limits assumed, chain 3 of 3): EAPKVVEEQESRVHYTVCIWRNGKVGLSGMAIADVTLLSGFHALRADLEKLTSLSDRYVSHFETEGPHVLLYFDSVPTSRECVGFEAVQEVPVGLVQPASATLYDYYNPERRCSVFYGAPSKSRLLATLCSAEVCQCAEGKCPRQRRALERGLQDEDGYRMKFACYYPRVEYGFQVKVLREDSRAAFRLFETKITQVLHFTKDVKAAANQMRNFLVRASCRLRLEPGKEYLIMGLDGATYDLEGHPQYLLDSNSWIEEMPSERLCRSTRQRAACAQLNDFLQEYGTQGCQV
Assay: cell-based or functional assay
Relative C4b CFA overview
Reply briefly: the number, and no unit.

[
  {
    "Binder": "D2D3M3M4 (F197I) (protein) CEVPTRLNSASLKQPYITQNYFPVGTVVEYECRPGYRREPSLSPKLTCLQNLKWSTAVEFCKKKSCPNPGEIRNGQIDVPGGILFGATISFSCNTGYKLIGSTSSFCLISGSSVQWSDPLPECREIYCTPPPKIKNGKHTFSEVEVFEYLDAVTYSCDPAPGPDPFSLIGESTIYCGDNSVWSRAAPECKVVKCRFPVVENGKQISGFGKKFYYKATVMFECDKGFYLDGSDTIVCDSNSTWDPPVPKCLKVL",
    "Relative C4b CFA": 7
  },
  {
    "Binder": "D2D3M3M4 (T200Y) (protein) CEVPTRLNSASLKQPYITQNYFPVGTVVEYECRPGYRREPSLSPKLTCLQNLKWSTAVEFCKKKSCPNPGEIRNGQIDVPGGILFGATISFSCNTGYKLFGSYSSFCLISGSSVQWSDPLPECREIYCTPPPKIKNGKHTFSEVEVFEYLDAVTYSCDPAPGPDPFSLIGESTIYCGDNSVWSRAAPECKVVKCRFPVVENGKQISGFGKKFYYKATVMFECDKGFYLDGSDTIVCDSNSTWDPPVPKCLKVL",
    "Relative C4b CFA": 0.9
  }
]

Looking for the measured Relative C4b CFA of D2D3M3M4 (T192E) (protein) CEVPTRLNSASLKQPYITQNYFPVGTVVEYECRPGYRREPSLSPKLTCLQNLKWSTAVEFCKKKSCPNPGEIRNGQIDVPGGILFGATISFSCNEGYKLFGSTSSFCLISGSSVQWSDPLPECREIYCTPPPKIKNGKHTFSEVEVFEYLDAVTYSCDPAPGPDPFSLIGESTIYCGDNSVWSRAAPECKVVKCRFPVVENGKQISGFGKKFYYKATVMFECDKGFYLDGSDTIVCDSNSTWDPPVPKCLKVL , can you help?
8.7
